Cited source: PubChem BioAssay (Tox21)

# protocolSummary: qHTS assay to identify small molecule antagonists of the estrogen related receptor (ERR) signaling pathway from Tox21 library - cell viability counter screen (AID 1224834); also: nearly all actives have a fitted effect of over 30% in size
# studyConditions: ERR reporter cells viability, CellTiter-Fluor, 17.5 h; series mostly up to 92.4 µM
Records with an inconclusive call do not appear. Calls of active or inactive are those of the source. Calls follow the shape of the dose curve; as a rule, active = well fitted cell-killing curve with a large enough effect in the repeat runs; inconclusive = weak or mixed curves; inactive = flat fitted curve, though single readings scatter.
Just give me one of these, please: t (active), f (inactive)

Example results:
[[record]]
molecule = "C=CCn1c(=O)n(CC=C)c(=O)n(CC=C)c1=O"
category = "f"

[[record]]
molecule = "Cc1cc(C(C)(C)C)cc(C)c1CC1=NCCN1"
category = "f"

[[record]]
molecule = "CC(=O)OCC=C(C)C"
category = "f"

[[record]]
molecule = "CCC(=O)OC(=O)CC"
category = "f"

[[record]]
molecule = "O=S(=O)(O)c1ccc(Nc2nc(Nc3ccc(/C=C/c4ccc(Nc5nc(Nc6ccc(S(=O)(=O)O)cc6)nc(N(CCO)CCO)n5)cc4S(=O)(=O)O)c(S(=O)(=O)O)c3)nc(N(CCO)CCO)n2)cc1"
category = "f"

[[record]]
molecule = "Cc1cc(-n2nc3ccc(Cl)cc3n2)c(O)c(C(C)(C)C)c1"
category = "f"

[[record]]
molecule = "C=C(C)C(=O)OCCCCCCCCCC"
category = "f"

[[record]]
molecule = "COC(=O)C1=C(C)NC(C)=C(C(=O)OCCN2CCN(C(c3ccccc3)c3ccccc3)CC2)C1c1cccc([N+](=O)[O-])c1 (stereo not given)"
category = "t"


(Q) Look up the recorded call for O=C(O)Cc1ccccc1Nc1c(Cl)cccc1Cl in this test.
(A) f

(Q) Repeat with CCN(CCN)c1cccc(C)c1
(A) f
